# experimental target: ZMYM1 (UniProt Q5SVZ6)
# Sequence (Q5SVZ6 whole entry, looked up): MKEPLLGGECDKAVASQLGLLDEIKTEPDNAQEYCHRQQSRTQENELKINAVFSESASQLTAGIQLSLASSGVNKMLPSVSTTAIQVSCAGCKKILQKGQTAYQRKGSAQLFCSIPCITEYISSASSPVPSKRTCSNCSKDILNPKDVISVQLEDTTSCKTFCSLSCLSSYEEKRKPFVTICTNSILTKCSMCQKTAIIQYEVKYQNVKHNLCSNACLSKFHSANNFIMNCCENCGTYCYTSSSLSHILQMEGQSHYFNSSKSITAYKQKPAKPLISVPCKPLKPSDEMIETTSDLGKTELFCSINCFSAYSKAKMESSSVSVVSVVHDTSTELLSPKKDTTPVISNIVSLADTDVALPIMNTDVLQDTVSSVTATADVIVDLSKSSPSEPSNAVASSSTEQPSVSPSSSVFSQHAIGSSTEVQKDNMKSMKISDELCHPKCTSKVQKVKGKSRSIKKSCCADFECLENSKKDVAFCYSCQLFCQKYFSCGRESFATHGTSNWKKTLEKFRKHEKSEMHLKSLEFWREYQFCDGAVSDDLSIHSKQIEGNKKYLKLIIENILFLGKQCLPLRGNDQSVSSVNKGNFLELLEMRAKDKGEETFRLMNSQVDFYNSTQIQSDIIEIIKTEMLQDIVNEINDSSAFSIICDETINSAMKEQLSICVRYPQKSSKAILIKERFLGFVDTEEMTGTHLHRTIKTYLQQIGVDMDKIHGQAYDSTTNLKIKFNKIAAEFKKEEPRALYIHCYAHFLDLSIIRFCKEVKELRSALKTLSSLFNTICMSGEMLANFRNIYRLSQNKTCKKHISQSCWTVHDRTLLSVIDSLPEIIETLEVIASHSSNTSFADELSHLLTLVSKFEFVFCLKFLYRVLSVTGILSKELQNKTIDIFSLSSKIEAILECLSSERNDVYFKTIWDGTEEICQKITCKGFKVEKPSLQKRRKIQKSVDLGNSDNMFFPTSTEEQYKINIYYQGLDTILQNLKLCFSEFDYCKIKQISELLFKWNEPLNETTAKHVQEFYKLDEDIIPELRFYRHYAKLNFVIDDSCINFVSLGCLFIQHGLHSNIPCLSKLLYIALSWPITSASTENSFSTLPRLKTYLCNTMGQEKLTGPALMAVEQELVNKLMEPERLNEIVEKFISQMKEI
# assay method text: log2 fold change, soluble protein after heating vs DMSO (PISA); higher = thermal stabilisation; K562 cells, 10 uM, 30 min; active = over 0.2 and 3.5 SD of the protein, either way, in both replicates (recomputed)
The full data set covers some 7,900 targets. This sample favours those with a hit. About 0.6% of all pairs of compound and target were hits.
If the reported log2 fold change equals or exceeds 0.04, assign rule met. If not, assign rule not met.

molecule=CN1CCc2c(c3ccccc3n2Cc2ccc(C(=O)NO)cc2)C1 qualitative_label="rule met"
molecule=Cc1cccc(-c2[nH]c(C(C)(C)C)nc2-c2ccc3nccnc3c2)n1 qualitative_label="rule met"
molecule=COC(=O)N[C@@H](C)CNc1nccc(-c2cn(C(C)C)nc2-c2cc(Cl)cc(NS(C)(=O)=O)c2F)n1 qualitative_label="rule met"
molecule=CC[C@H](C)n1cc(C)c2c(C(=O)NCc3c(C)cc(C)[nH]c3=O)cc(-c3ccc(N4CCNCC4)nc3)cc21 qualitative_label="rule not met"
molecule=CC(=O)c1cnc2ccc(-c3cc(Cl)c(O)c(Cl)c3)nc2c1N[C@H]1CC[C@H](CN(C)C)CC1 qualitative_label="rule met"
molecule=NC(=O)c1ccc2nc(-c3ccc(Oc4ccc(Cl)cc4)cc3)[nH]c2c1 qualitative_label="rule not met"
molecule="CC1=C(C(=O)Nc2cc3cn[nH]c3cc2F)C(c2ccc(C(F)(F)F)cc2)CC(=O)N1 (stereo not drawn)" qualitative_label="rule met"
molecule=CS(=O)(=O)c1ccc(-c2cnc(N)c(C(=O)Nc3ccccc3)n2)cc1 qualitative_label="rule not met"
